# credit: PubChem BioAssay (NCI)

- Test system: SR leukemia
- TEST_DETAILS: NCI tumour cell line growth inhibition, 48 h
Quick list: TGI per entry.

Observe how each entry below is paired with its result.
[
  {
    "MOLECULE": "CCOC(=O)c1c(-c2ccccc2)[n+](=O)c2ccc(Cl)cc2n1[O-]",
    "TGI": "11 µM"
  },
  {
    "MOLECULE": "C=C[C@]1(C)CCC2=C(CCC3C2(C)CCC[C@]3(C)CO)C1 (stereo partly specified)",
    "TGI": "> 100 µM"
  }
]

Exercise: Any idea what its TGI is? The molecule is `Oc1c2cc(Br)cc1CCc1cc(Br)cc(c1O)CC2`
Key: > 100 µM

Exercise: Any idea what its TGI is? The molecule is O=C(O)C(CSC(c1ccccc1)(c1ccccc1)c1ccccc1)N=Cc1cccs1 (stereo unspecified)
Key: > 100 µM

Exercise: Any idea what its TGI is? The molecule is COC(=O)C1=NN2c3ccccc3C(=O)OCCC2(C)C1 (stereo unspecified)
Key: > 100 µM

Exercise: Any idea what its TGI is? The molecule is `Cc1cccc2c(N=Nc3ccc(S(N)(=O)=O)cc3)c(O)[nH]c12`
Key: > 25 µM
